# Tested on: rodent lifetime carcinogenesis bioassay, tumor incidence TD50
# methodNotes: carcinogenic potency in animals, long-term in vivo studies, CPDB compilation (AID 1745844)
# assaySetup: mouse; strain Swiss; females; i.p.; site: kidney; lesion: adenoma; dosed 26 weeks; study length 78 weeks

# recordSmiles, testedSystem, TD50
records = [
    ("CN(N=O)C(=O)N[C@@H](C=O)[C@@H](O)[C@H](O)[C@H](O)CO", "rodent lifetime carcinogenesis bioassay, tumor incidence TD50", "1.39 mg/kg/day"),
]

====

# Test system: rodent lifetime carcinogenesis bioassay, tumor incidence TD50
# methodNotes: carcinogenic potency in animals, long-term in vivo studies, CPDB compilation (AID 1745844)
# assaySetup: rat; strain Fischer 344; females; in feed; site: ear canal; lesion: ceruminous carcinoma; dosed 78 weeks; study length 101 weeks

# recordSmiles, testedSystem, TD50
records = [
    ("O=[N+]([O-])c1ccc2c3c(cccc13)CC2", "rodent lifetime carcinogenesis bioassay, tumor incidence TD50", "17.4 mg/kg/day"),
]

====

# Tested on: rodent lifetime carcinogenesis bioassay, tumor incidence TD50
# methodNotes: carcinogenic potency in animals, long-term in vivo studies, CPDB compilation (AID 1745844)
# assaySetup: rat; strain Osborne-Mendel; males; in feed; site: all sites; lesion: hemangioma; dosed 80 weeks; study length 110 weeks
measuredAttribute: TD50

# recordSmiles, measuredAttribute, valueMeasured
records = [
    ("ClC1=C(Cl)[C@]2(Cl)[C@@H]3[C@H]4C[C@H]([C@@H]5O[C@H]45)[C@@H]3[C@@]1(Cl)C2(Cl)Cl", "TD50", "0.661 mg/kg/day"),
]

====

# Test system: rodent lifetime carcinogenesis bioassay, tumor incidence TD50
# methodNotes: carcinogenic potency in animals, long-term in vivo studies, CPDB compilation (AID 1745844)
# assaySetup: mouse; strain Swiss albino; males; in drinking water; site: liver; lesion: hepatoma; dosed 81 weeks; study length 81 weeks
The source made the active and inactive calls. No rule for the calls is given here.

# recordSmiles, testedSystem, TD50
measured = [
    ("CN(C)NC(=O)CCC(=O)O", "rodent lifetime carcinogenesis bioassay, tumor incidence TD50", "38800 mg/kg/day (inactive)"),
]

====

# Tested on: rodent lifetime carcinogenesis bioassay, tumor incidence TD50
# methodNotes: carcinogenic potency in animals, long-term in vivo studies, CPDB compilation (AID 1745844)
# assaySetup: mouse; strain B6C3F1; females; in feed; site: all sites; lesion: leukemia + lymphoma; dosed 101 weeks; study length 101 weeks

# recordSmiles, TD50
measured = [
    ("Cc1ccc(N)cc1N", "10.6 mg/kg/day"),
]

====

# System: rodent lifetime carcinogenesis bioassay, tumor incidence TD50
# methodNotes: carcinogenic potency in animals, long-term in vivo studies, CPDB compilation (AID 1745844)
# assaySetup: rat; strain F344/DuCrj; males; in drinking water; site: liver; lesion: several types; types named in the paper; dosed 104 weeks; study length 105 weeks

# recordSmiles, TD50
data = [
    ("C1COCCO1", "189 mg/kg/day"),
]

====

# Tested on: rodent lifetime carcinogenesis bioassay, tumor incidence TD50
# methodNotes: carcinogenic potency in animals, long-term in vivo studies, CPDB compilation (AID 1745844)
# assaySetup: hamster; strain Syrian Golden; both sexes; by gavage; site: pharynx; lesion: papilloma; dosed 53 weeks; study length 59 weeks
measuredAttribute: TD50

# recordSmiles, testedSystem, valueMeasured
measured = [
    ("C=CCN(CC=C)N=O", "rodent lifetime carcinogenesis bioassay, tumor incidence TD50", "25.3 mg/kg/day"),
]

====

# Tested on: rodent lifetime carcinogenesis bioassay, tumor incidence TD50
# methodNotes: carcinogenic potency in animals, long-term in vivo studies, CPDB compilation (AID 1745844)
# assaySetup: mouse; strain Swiss albino; males; in drinking water; site: liver; lesion: hepatoma; dosed 101 weeks; study length 101 weeks
Calls of active or inactive are those of the source. The rule behind the calls is not given here.

# recordSmiles, TD50
measured = [
    ("NNC(=O)c1cccnc1", "1410 mg/kg/day (inactive)"),
]

====

# Tested on: rodent lifetime carcinogenesis bioassay, tumor incidence TD50
# methodNotes: carcinogenic potency in animals, long-term in vivo studies, CPDB compilation (AID 1745844)
# assaySetup: rat; strain Fischer 344; males; in drinking water; site: all sites; lesion: mesothelioma, benign + mesothelioma, malignant; dosed 88 weeks; study length 92 weeks

# recordSmiles, TD50
measured = [
    ("COc1cc(-c2ccc(N)c(OC)c2)ccc1N", "27.4 mg/kg/day"),
]

====

# System: rodent lifetime carcinogenesis bioassay, tumor incidence TD50
# methodNotes: carcinogenic potency in animals, long-term in vivo studies, CPDB compilation (AID 1745844)
# assaySetup: mouse; strain C3HeB/Fe; both sexes; in feed; site: any site (literature study); lesion: benign tumor; dosed 104 weeks; study length 104 weeks

# recordSmiles, TD50, mg/kg/day
rows = [
    ("ClC1=C(Cl)[C@]2(Cl)[C@H]3[C@H]([C@@H]4C=C[C@H]3C4)[C@@]1(Cl)C2(Cl)Cl", 4.25),
    ("ClC1=C(Cl)[C@]2(Cl)[C@@H]3[C@@H]4C[C@@H]([C@H]5O[C@@H]45)[C@@H]3[C@@]1(Cl)C2(Cl)Cl", 3.1),
]

====

# Test system: rodent lifetime carcinogenesis bioassay, tumor incidence TD50
# methodNotes: carcinogenic potency in animals, long-term in vivo studies, CPDB compilation (AID 1745844)
# assaySetup: rat; strain Fischer 344; males; by gavage; site: forestomach; lesion: one or several types; types not named; dosed 30 weeks; study length 104 weeks

# recordSmiles, TD50
data = [
    ("NC(=O)N(CCCO)N=O", "1.98 mg/kg/day"),
    ("CCN(N=O)C(=O)NCC(C)=O", "0.861 mg/kg/day"),
    ("C=CCN(N=O)C(N)=O", "0.266 mg/kg/day"),
]

====

# Tested on: rodent lifetime carcinogenesis bioassay, tumor incidence TD50
# methodNotes: carcinogenic potency in animals, long-term in vivo studies, CPDB compilation (AID 1745844)
# assaySetup: rat; strain Fischer 344; males; by gavage; site: liver; lesion: hepatocellular carcinoma; dosed 30 weeks; study length 112 weeks
measuredAttribute: TD50

# recordSmiles, measuredAttribute, valueMeasured
data = [
    ("CCCCCCCCCCCCN(C)N=O", "TD50", "8.98 mg/kg/day"),
]

====

TD50 values for the compounds below.
# Tested on: rodent lifetime carcinogenesis bioassay, tumor incidence TD50
# methodNotes: carcinogenic potency in animals, long-term in vivo studies, CPDB compilation (AID 1745844)
# assaySetup: mouse; strain B6C3F1; females; in feed; site: liver; lesion: hepatocellular adenoma + hepatocellular carcinoma + neoplastic nodule; dosed 106 weeks; study length 106 weeks

# recordSmiles, readoutUnits, TD50
records = [
    ("O=C1c2ccccc2-c2ccc3c4c(ccc1c24)-c1ccccc1C3=O", "mg/kg/day", 23900),
    ("CCN(CC)C(=S)S[Te](SC(=S)N(CC)CC)(SC(=S)N(CC)CC)SC(=S)N(CC)CC", "mg/kg/day", 2270),
]

====

# System: rodent lifetime carcinogenesis bioassay, tumor incidence TD50
# methodNotes: carcinogenic potency in animals, long-term in vivo studies, CPDB compilation (AID 1745844)
# assaySetup: rat; strain Charles River CD (Sprague-Dawley); males; in feed; site: any site (literature study); lesion: malignant tumor; dosed 104 weeks; study length 104 weeks
Active and inactive are the calls of the source. How the calls were made is not given here.

# compound, TD50
rows = [
    ("CC(=O)Oc1c(C)c(C)c2c(c1C)CCC(C)(CCCC(C)CCCC(C)CCCC(C)C)O2 (configuration not stated)", "67800 mg/kg/day (inactive)"),
    ("O=C1CN(N=Cc2ccc([N+](=O)[O-])o2)C(=O)N1", "1200 mg/kg/day (inactive)"),
]

====

# Test system: rodent lifetime carcinogenesis bioassay, tumor incidence TD50
# methodNotes: carcinogenic potency in animals, long-term in vivo studies, CPDB compilation (AID 1745844)
# assaySetup: rat; strain Charles River CD (Sprague-Dawley); males; i.p.; site: mammary gland; lesion: squamous-cell carcinoma; dosed 26 weeks; study length 78 weeks
measuredAttribute: TD50

# recordSmiles, testedSystem, measuredAttribute, valueMeasured
measured = [
    ("O[C@H]([C@H](O)[C@@H](O)CBr)[C@H](O)CBr", "rodent lifetime carcinogenesis bioassay, tumor incidence TD50", "TD50", "182 mg/kg/day"),
]

====

# Tested on: rodent lifetime carcinogenesis bioassay, tumor incidence TD50
# methodNotes: carcinogenic potency in animals, long-term in vivo studies, CPDB compilation (AID 1745844)
# assaySetup: rat; strain Wistar; males; in feed; site: liver; lesion: several types; types named in the paper; dosed 57 weeks; study length 57 weeks
measuredAttribute: TD50

# molecule, testedSystem, valueMeasured
rows = [
    ("CC(C)(Oc1ccc(C2CCCc3ccccc32)cc1)C(=O)O (stereo unspecified)", "rodent lifetime carcinogenesis bioassay, tumor incidence TD50", "19.8 mg/kg/day"),
]

====

# Tested on: rodent lifetime carcinogenesis bioassay, tumor incidence TD50
# methodNotes: carcinogenic potency in animals, long-term in vivo studies, CPDB compilation (AID 1745844)
# assaySetup: mouse; strain B6C3F1; females; in feed; site: liver; lesion: hepatocellular adenoma + hepatocellular carcinoma + neoplastic nodule; dosed 103 weeks; study length 109 weeks

# recordSmiles, readoutUnits, TD50
records = [
    ("NCCCCCCCCCCC(=O)O", "mg/kg/day", 37900),
]
